Entry source: patent US20170145472A1

Quantum yield values by entry
experiment: Photophysical measurement; type: physicochemical; details: reference [Ru(bpy)3][PF6]2 in degassed acetonitrile
Lab note: jot down the number only; don't add units.

line-notation	value-kind	experimental-value
F[P-](F)(F)(F)(F)F.c1ccc(-c2ccc3ccc4ccc(-c5ccccc5)[n+]5c4c3[n+]2[Ir-3]523([c]4ccccc4-n4ccc[n+]42)[c]2ccccc2-n2ccc[n+]23)cc1	Quantum yield	0.13

## Task Return value of Quantum yield for input "Cc1ccc2ccc3ccc(C)[n+]4c3c2[n+]1[Ir-3]412([c]3ccccc3-c3ccc4ccccc4[n+]31)[c]1ccccc1-c1ccc3ccccc3[n+]12.F[P-](F)(F)(F)(F)F" , no commentary.
## Result 0.087

## Task Return value of Quantum yield for input "F[P-](F)(F)(F)(F)F.c1cc[c]2c(c1)-c1ccc3ccccc3[n+]1[Ir-3]213([c]2ccccc2-c2ccc4ccccc4[n+]21)[n+]1cccc2c4nccnc4c4ccc[n+]3c4c21" , no commentary.
## Result 0.067
